Target: KRAS-G12V (Homo sapiens, UniProt P01116, G12V)
Sequence (P01116 with tags, fused parts or gaps isoform P01116-2 G12V): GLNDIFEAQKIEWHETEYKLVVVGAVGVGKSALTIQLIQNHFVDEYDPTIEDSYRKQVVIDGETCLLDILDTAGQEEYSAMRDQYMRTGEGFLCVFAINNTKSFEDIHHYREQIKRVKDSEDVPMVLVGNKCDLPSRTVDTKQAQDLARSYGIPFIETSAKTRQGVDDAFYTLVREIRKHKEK
Assay: SOS-catalyzed nucleotide exchange assay (Procedure A, TR-FRET), KRAS-G12V
Format: biochemical
Conditions: nucleotide exchange, read-out: KRAS G12V GNE IC50
test-readout: pIC50
Numbers only, as −log10 of the molar value.

C[C@@]1(O)COCCN(c2nc(OC[C@]3(CN4CC(CF)C4)CC3(F)F)nc3sc4c(-c5c(C6(F)CC6)c(Cl)cc6[nH]ncc56)nccc4c23)C1 : 7.67

Kindly give each listed record's pIC50.
1. CCC1(F)c2c(cc3[nH]ncc3c2-c2nccc3c2sc2nc(OC[C@@]45CCCN4C[C@H](F)C5)nc(N4CCOC[C@@](C)(O)C4)c23)CC1(F)F (some centres unmarked)
2. Cc1cc2c3c(N4CCOC[C@@](C)(O)C4)nc(OC[C@@]45CCCN4C[C@H](F)C5)nc3n(C)c2c(-c2c(C(F)(F)F)c(C)cc3[nH]ncc23)n1 (single isomer, unassigned)
3. C#Cc1cccc2cc3[nH]ncc3c(-c3nccc4c3sc3nc(OC[C@@]56CCCN5C[C@H](F)C6)nc(N5CCOC[C@@](C)(O)C5)c34)c12
4. C[C@@]1(O)COCCN(c2nc(OC[C@]3(CN4CC5(CCCOC5)C4)CC3(F)F)nc3sc4c(-c5c(C6(F)CC6)c(Cl)cc6[nH]ncc56)nccc4c23)C1
5. Cc1cc2[nH]nc(C#N)c2c(-c2nccc3c4c(N5CCOC[C@@](C)(O)C5)nc(OC[C@@]56CCCN5C[C@H](F)C6)nc4n(C)c23)c1C(F)(F)F (single isomer, unassigned)
6. Cc1c2nc(OC[C@@]34CCCN3C[C@H](F)C4)nc(N3CCOC[C@@](C)(O)C3)c2n2ccnc(-c3c(C4CC4)c(Cl)cc4[nH]ncc34)c12 (single isomer, unassigned)
7. COC1(C)CN(C[C@@]2(COc3nc(N4CCOC[C@@](C)(O)C4)c4c(n3)sc3c(-c5c(C6(F)CC6)c(Cl)cc6[nH]ncc56)nccc34)CC2(F)F)C1
8. Cc1cc2[nH]ncc2c(-c2nccc3c2sc2nc(OC[C@@]45CCCN4C[C@H](F)C5)nc(N4CCOC[C@@](C)(O)C4)c23)c1C1CC1

[7.68, 6.03, 8.29, 7.81, 6.27, 7.77, 7.98, 7.78]

Quick request: pIC50 for each listed item, please.
1. CO[C@]12CC[C@H]1CN(C[C@@]1(COc3nc(N4CCOC[C@@](C)(O)C4)c4c(n3)sc3c(-c5c(C6(F)CC6)c(Cl)cc6[nH]ncc56)nccc34)CC1(F)F)C2
2. Cc1c(Cl)cccc1-c1nccc2c1sc1nc(OC[C@@]34CCCN3C[C@H](F)C4)nc(N3CCOC[C@@](C)(O)C3)c12

1: 6.73; 2: 6.56

---

Target: KRAS-G12D (Homo sapiens, UniProt P01116, G12D)
Sequence (P01116 with tags, fused parts or gaps isoform P01116-2 G12D): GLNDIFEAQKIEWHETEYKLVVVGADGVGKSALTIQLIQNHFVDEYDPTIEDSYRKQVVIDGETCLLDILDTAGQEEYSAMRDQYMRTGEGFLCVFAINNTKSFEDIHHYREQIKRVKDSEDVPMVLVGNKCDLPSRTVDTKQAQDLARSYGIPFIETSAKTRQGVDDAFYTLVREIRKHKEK
Assay: SOS-catalyzed nucleotide exchange assay (Procedure A, TR-FRET), KRAS-G12D
Type: biochemical
Conditions: nucleotide exchange, read-out: KRAS G12D GNE IC50
Provide the reported pIC50 of each item.
Numbers only, as −log10 of the molar value.

Use these answered entries as a reference point.
C#Cc1csc2cc3[nH]ncc3c(-c3nccc4c3sc3nc(OC[C@@]56CCCN5C[C@H](F)C6)nc(N5CCOC[C@@](C)(O)C5)c34)c12 [Ex-163] : 8.63
Cc1cc2[nH]ncc2c(-c2nccc3c2sc2nc(OC[C@@]45CCCN4C[C@H](F)C5)nc(NC4CNC(=O)C4)c23)c1C(F)(F)F (stereo partly shown) [Ex-192] : 6.55
Cc1c2nc(OC[C@@]34CCCN3C[C@H](F)C4)nc(N3CCOC[C@@](C)(O)C3)c2n2ccnc(-c3c(C4CC4)c(Cl)cc4[nH]ncc34)c12 (single isomer, unassigned) [Ex-302] : 8.05
C=C(C)c1c(Cl)cc2[nH]ncc2c1-c1nccc2c1sc1nc(OC[C@@]34CCCN3C[C@H](F)C4)nc(N3CCOC[C@@](C)(O)C3)c12 [Ex-142] : 7.72
C[C@@]1(O)COCCN(c2nc(OC[C@]3(CN4CC(CF)C4)CC3(F)F)nc3sc4c(-c5c(C6(F)CC6)c(Cl)cc6[nH]ncc56)nccc4c23)C1 [Ex-266] : 8.43
C[C@@]1(O)COCCN(c2nc(OC[C@@]34CCCN3C[C@H](F)C4)nc3sc4c(-c5ccc(F)c6sc(N)c(C#N)c56)nccc4c23)C1 [Ex-275] : 5.88

The following molecules each have a reported value; give each one's pIC50.
1. C[C@@]1(O)COCCN(c2nc(OC[C@@]34CCCN3C[C@H](F)C4)nc3sc4c(-c5c6ccccc6cc6[nH]ncc56)nccc4c23)C1 [Ex-170]
2. C#Cc1cccc2[nH]nc(-c3nccc4c3sc3nc(OC[C@@]56CCCN5C[C@H](F)C6)nc(N5CCOC[C@@](C)(O)C5)c34)c12 [Ex-159]
3. Cc1cc2[nH]ncc2c(-c2nccc3c2sc2nc(OC[C@@]45CCCN4C[C@H](F)C5)nc(N4CCOC[C@@](C)(O)C4)c23)c1-c1ccc(F)o1 [Ex-72]
4. Cc1cc2[nH]nc(C#N)c2c(-c2nccc3c4c(N5CCOC[C@@](C)(O)C5)nc(OC[C@@]56CCCN5C[C@H](F)C6)nc4n(C)c23)c1C(F)F (single isomer, unassigned) [Ex-9]

[7.48, 6.59, 7.82, 6.21]
